Reference for the values: paper PMC8767159

MEASURED_TARGET: cruzain (Trypanosoma cruzi, UniProt P25779)
Construct: made in house; host or cells: Escherichia coli (strain M15)
Sequence (P25779 123-337 limits assumed): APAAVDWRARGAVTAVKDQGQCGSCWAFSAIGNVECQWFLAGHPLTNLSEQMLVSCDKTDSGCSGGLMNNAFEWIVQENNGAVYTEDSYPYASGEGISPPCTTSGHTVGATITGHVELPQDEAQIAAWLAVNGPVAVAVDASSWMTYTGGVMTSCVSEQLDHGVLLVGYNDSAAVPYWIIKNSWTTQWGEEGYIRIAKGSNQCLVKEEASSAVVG
ASSAY_PROCEDURE: Cruzain enzyme inhibition assay (cleavage of fluorogenic substrate Z-FR-AMC)
Type: biochemical
EXPERIMENTAL_SETUP: eight substrate and four inhibitor concentrations
READOUT_LABEL: Mechanism of cruzain inhibition (Lineweaver-Burk plots)

Below, each entry is followed by its recorded Mechanism of cruzain inhibition (Lineweaver-Burk plots) result.
Cn1c(CCNC(=O)COc2ccccc2)nc2ccccc21; competitive
C=CCCn1c(CCNC(=O)COc2ccccc2)nc2ccccc21; noncompetitive
O=C(COc1ccccc1)NCCc1nc2ccccc2n1CCCOc1ccccc1; noncompetitive
O=C(COc1ccccc1)NCCc1nc2ccccc2n1CCOc1ccccc1; noncompetitive
O=C(COc1ccccc1)NCCc1nc2ccccc2[nH]1; competitive

--- query ---
Req: Using known records, supply Mechanism of cruzain inhibition (Lineweaver-Burk plots) for O=C(COc1ccccc1)NCCc1nc2ccccc2n1Cc1ccccc1
Resp: noncompetitive

----------
Here, each record is paired with measured chromatographic logD data.
ASSAY_PROCEDURE: Experimental distribution coefficient (eLogD) by LC retention time
Type: physicochemical
EXPERIMENTAL_SETUP: C18 column (LC retention time), pH 7.4, Table S5
Reply: number alone, nothing else.

For orientation, consider the following solved cases.
O=C(COc1ccc2c(C(=O)O)cccc2c1)NCCc1nc2ccccc2[nH]1; 1.31
O=C(COc1cccc(N2C(=O)CCC2=O)c1)NCCc1nc2ccccc2[nH]1; 1.8
O=C(COc1cccc(NC(=O)CCCO)c1)NCCc1nc2ccccc2[nH]1; 2.23

Req: Query chromatographic logD for COCCn1c(CCNC(=O)COc2ccccc2)nc2ccccc21
Resp: 3.13

Req: State its chromatographic logD for this molecule: O=C(COc1ccccc1)NCCc1nc2ccccc2n1CCOCc1ccccc1
Resp: 4.24

Req: Annotate the molecule Cc1ccccc1OCC(=O)NCCc1nc2ccccc2n1CCOc1ccccc1Br with its measured chromatographic logD.
Resp: 4.81

Req: Read the entry O=C(COc1ccccc1)NCCc1nc2ccccc2n1-c1ccccc1 and write its reported chromatographic logD.
Resp: 4.04

Req: Look up and state reported chromatographic logD for O=C(COc1ccccc1Br)NCCc1nc2ccccc2n1CCOc1ccccc1Br
Resp: 4.69

----------
ASSAY_PROCEDURE: In vitro metabolic stability in human liver microsomes
Format: in vitro ADME
EXPERIMENTAL_SETUP: human, liver microsomes, Table 5, CLint/fu, read-out: CLint_u (L/h/kg) human (converted)
READOUT_LABEL: CLint scaled at 5 µM (L/h/kg)
Give the number; L/h/kg is assumed, so skip it.

Req: Name the recorded CLint scaled at 5 µM of the molecule listed here: N#Cc1ccccc1OCC(=O)NCCc1nc2ccccc2[nH]1
Resp: 6.6

Req: Return value of CLint scaled at 5 µM for input O=C(COc1ccc2ccccc2c1Br)NCCc1nc2ccccc2[nH]1 , no commentary.
Resp: 540

----------
ASSAY_PROCEDURE: In vitro metabolic stability in human liver microsomes
Format: in vitro ADME
EXPERIMENTAL_SETUP: human, liver microsomes, Table S5, CLint/fu, read-out: CLint_u (L/h/kg) Human (converted)
Each entry below carries its reported log10(CLint scaled at 5 µM).
For clarity, the numbers are log10 values of CLint scaled at 5 µM expressed in L/h/kg.

CC(=O)Nc1cccc(OCC(=O)NCCc2nc3ccccc3[nH]2)c1 [Compound 3]; 0.84
COCCn1c(CCNC(=O)COc2ccccc2)nc2ccccc21 [Compound 29]; 1.36
O=C(COc1ccccc1)NCCc1nc2ccccc2n1-c1ccccc1 [Compound 30]; 1.97
O=C(COc1cccc(N2C(=O)CCC2=O)c1)NCCc1nc2ccccc2[nH]1 [Compound 6]; 0.55

Req: Please indicate log10(CLint scaled at 5 µM) recorded for Cn1c(CCNC(=O)COc2ccccc2)nc2ccccc21 [Compound 25]
Resp: 0.66

----------
ASSAY_PROCEDURE: In vivo pharmacokinetics in male CD1 mice
Parameters: species or system mouse
EXPERIMENTAL_SETUP: male, CD1, mouse, 0.5 mg/kg; Table S6; plasma clearance, IV, mice; read-out: CLp (L/h/kg) IV (converted)
Method: The in vivo pharmacokinetic profiles of the compounds were determined using male CD1 mice weighing […] ([Davies and Morris, 1993]; [Liu and Jia, 2007]). The compounds were administered in a single dose orally (0.5 mg/kg) and intravenously (0.5 mg/kg). […] The remaining plasma concentration was monitored over time by LC-MS/MS by collecting blood samples (40 μl) at 10, 25, and 50 min and 1, 3, 6, 9, 12, and 24 h after administration of the compound. […]
READOUT_LABEL: log10 clearance (log10 of the value in L/h/kg)
On a log10 scale: recorded clearance, unit L/h/kg.

Please review the following examples before continuing.
O=C(COc1ccc2cc(O)ccc2c1)NCCc1nc2ccccc2[nH]1; 0.81
O=C(COc1ccc2ccc(O)cc2c1)NCCc1nc2ccccc2[nH]1; 1.11
CC(=O)Nc1cccc(OCC(=O)NCCc2nc3ccccc3[nH]2)c1; 0.36
O=C(Cn1ccnc1[N+](=O)[O-])NCc1ccccc1 [BZ, benznidazole, reference compound]; 0.00

Turning to the following molecule.
Req: Given the molecule O=C(COc1cccc([N+](=O)[O-])c1)NCCc1nc2ccccc2[nH]1 , write its reported log10 clearance.
Resp: 0.52

----------
Parameter: CLint scaled at 5 µM. Scope: all listed entries.
ASSAY_PROCEDURE: In vitro metabolic stability in human liver microsomes
Assay type: in vitro ADME
EXPERIMENTAL_SETUP: human, liver microsomes, Table S5, CLint/fu, read-out: CLint_u (L/h/kg) Human (converted)
Quick note: give the figure in L/h/kg, leave out the unit.

O=C(COc1cccc([N+](=O)[O-])c1)NCCc1nc2ccccc2[nH]1; 6.58

Req: In one line, give reported CLint scaled at 5 µM of the entry O=C(COc1ccccc1)NCCc1nc2ccccc2n1Cc1ccccc1 .
Resp: 196

Req: Answer with the recorded CLint scaled at 5 µM of O=C(COc1ccc(NC(=O)CCCO)cc1)NCCc1nc2ccccc2[nH]1 only.
Resp: 1.53

Req: Return CLint scaled at 5 µM (reported value) for this molecule: COc1ccc2cc(OCC(=O)NCCc3nc4ccccc4[nH]3)ccc2c1
Resp: 233

Req: Return CLint scaled at 5 µM (reported value) for this molecule: O=C(COc1ccc2ccc(O)cc2c1)NCCc1nc2ccccc2[nH]1
Resp: 14.2

Req: # return recorded CLint scaled at 5 µM for input O=C(Cn1ccnc1[N+](=O)[O-])NCc1ccccc1 [BZ, benznidazole, reference compound]
Resp: 1.5

Req: Find the measured CLint scaled at 5 µM of Nc1cccc(OCC(=O)NCCc2nc3ccccc3[nH]2)c1 and report it.
Resp: 11.1

Req: Give recorded CLint scaled at 5 µM. O=C(COc1ccccc1)NCCc1nc2ccccc2n1CCOc1ccccc1Br
Resp: 949

----------
ASSAY_PROCEDURE: In vivo pharmacokinetics in male CD1 mice
Set-up: species or system mouse
EXPERIMENTAL_SETUP: mouse, plasma; Table 6; IV 0.5 mg/kg, male CD1 mice; read-out: AUC (ng*h/ml) IV
READOUT_LABEL: AUC
Please state the number and follow it with the unit.

C=CCCn1c(CCNC(=O)COc2ccccc2Cl)nc2ccccc21 [Compound 38]; 82 ng·h/mL
O=C(COc1ccccc1[N+](=O)[O-])NCCc1nc2ccccc2[nH]1 [Compound 32]; 53 ng·h/mL
O=C(COc1ccc2ccccc2c1Br)NCCc1nc2ccccc2[nH]1 [Compound 34]; 116 ng·h/mL

Proceeding to the next compound to report its AUC.
Req: Provide measured AUC value, entry: O=C(CCc1ccccc1Br)NCCc1nc2ccccc2[nH]1 [Compound 36]
Resp: 55 ng·h/mL

----------
Catalogue of compounds with associated CLint scaled at 5 µM
ASSAY_PROCEDURE: In vitro metabolic stability in human liver microsomes
Assay type: in vitro ADME
EXPERIMENTAL_SETUP: human, liver microsomes, Table S5, read-out: CLint (L/h/kg) Human (converted)

Recorded CLint scaled at 5 µM, per entry:
NC(=O)Cn1c(CCNC(=O)COc2ccccc2)nc2ccccc21; < 1.5 L/h/kg
O=C(COc1ccccc1)NCCc1nc2ccccc2[nH]1; < 1.5 L/h/kg

Turning now to a further record.
Req: Respond only with CLint scaled at 5 µM recorded for O=C(COc1ccc(N2C(=O)CCC2=O)cc1)NCCc1nc2ccccc2[nH]1
Resp: < 1.5 L/h/kg

----------
ASSAY_PROCEDURE: In vitro metabolic stability in human liver microsomes
Type: in vitro ADME
EXPERIMENTAL_SETUP: Table S5, CLint/fu
READOUT_LABEL: CLint_u (L/h/kg) Human

Example entries begin here.
CC(=O)Nc1cccc(OCC(=O)NCCc2nc3ccccc3[nH]2)c1; 6.90 L/h/kg
Cc1cc(C)c(C#N)c(SCC(=O)NCCc2c[nH]c3ccccc23)n1; 194.48 L/h/kg

Req: Return the recorded CLint_u (L/h/kg) Human value; entry: COc1ccc2[nH]c(CCNC(=O)COc3ccc4ccccc4c3Br)nc2c1
Resp: 404.47 L/h/kg

Req: Specify CLint_u (L/h/kg) Human for O=C(COc1ccccc1F)NCCc1nc2ccccc2[nH]1 and stop.
Resp: 7.45 L/h/kg

Req: Read off the recorded CLint_u (L/h/kg) Human for Nc1ccccc1OCC(=O)NCCc1nc2ccccc2[nH]1
Resp: 4.64 L/h/kg

Req: Look up and report measured CLint_u (L/h/kg) Human for this entry: O=C(CSc1ccccc1)NCCc1nc2ccccc2[nH]1
Resp: 11.38 L/h/kg

Req: Please indicate CLint_u (L/h/kg) Human recorded for O=C(COc1ccc2ccccc2c1Br)NCCc1nc2ccccc2n1CCC(=O)c1cccs1
Resp: 3,634.26 L/h/kg

Req: Answer with the recorded CLint_u (L/h/kg) Human for the molecule listed here: Cc1ccc2[nH]c(CCNC(=O)COc3ccc4ccccc4c3Br)nc2c1
Resp: 1,334.7 L/h/kg

Req: State its CLint_u (L/h/kg) Human: Cc1cc(C)c(C#N)c(SCC(=O)NCCc2nc3ccccc3[nH]2)n1
Resp: 64.36 L/h/kg

Req: Specify CLint_u (L/h/kg) Human for CC(=O)NCCc1nc2ccccc2n1CCOCc1ccccc1 and stop.
Resp: 4.90 L/h/kg

Req: For the molecule O=C(CCOc1ccccc1)NCCc1c[nH]c2ccccc12 , give its reported CLint_u (L/h/kg) Human.
Resp: 16.99 L/h/kg
